Assay: soluble on expression in E. coli; label from the status in PepcDB or PDB records

- sequence.entry: "MTNKEKPIKHLVIDTCAIIANRNLHALADHYYAPPQILDELRSSAARKLWNTLPFEVTLREPTQTALRAVIDASKTTGDFQSLSMVDIKMIALTYDLHRQYVAENDVAETTEDDEKKNIEDLSAKVEQVTVGENTEDTKEEEIEENEESEDSAVSEGSESSESSESFDEDGWITQDNIEETLKKLGAFEIEENMLVGCLTTDFALQNVLLAMNLSLVSLSGYRIRKLKSFVLRCRTCFSTTSVMTKEFCPACGHKTLHKCAVSVDEDGNQQLHINWNRMANRRGLVYTLANPKGGKHATNERLFEDQPMPHMRMAKIHMDPLADGPFSVHDVTSRSAMLGVRTINNRAKQNRNPNESKRGGRRK"
  soluble on expression in E. coli: "not soluble"
- sequence.entry: "ENILAGRAKAEKMRLSAERNRNQMEIYRSLQQGDECRKRQIHDYKNQLNCIRGLVDDNRTKEALRYIGQLTGSLNESIHQINTGHPVVNVLLNQKYQSAREQQISMTMTMNNLSELSLSEEDIVTLLANLLDNAIEACLKLHGDRRIQLKMVLEEEELFLSIRNPVEWEVKISGKTAAAAKEKSGEHGLGLGNVDAVIRKNRGRSTLQCQEGWFCFTAVILQPQR"
  soluble on expression in E. coli: "not soluble"

----------
Experiment: soluble on expression in E. coli; label from the status in PepcDB or PDB records
experimental.readout: soluble on expression in E. coli

- sequence.entry: "MILMESLSVSGTETVSVPQDWNVMDVIGAKSWYVVSEKEPSWEEIIKGKTVEAVDEPPSRFEVISTSPLVLKKDTKYYIYNSTLKKWLVLEYEEPQSSRKLVMNGQGKVTLLLRSSGSWNVRYYLFEDTLTGNAFLSVSGVESADVFLISRPAGEASIWKGMYLSASPSREMPEEHESEEVKVYHLGKVKDLDKSPVVNLIETNLFNVNEYYSYSFAVNDSIFDYQKTTFTRSFMTPVDLPGGTVSIFSNISGVDIMIGETSIPDTPKNSLLELPVTDSWDVRVKGEILDERNYKDTYEYERTWRVTVQNLNETESKVRINIYGNMMRLLRSSIKPLKETSDQIVFELIVPPNSEKEFEFKVRSGWLEHHHHHH"
  experimental.readout: "soluble on expression in E. coli"
  result: "not soluble"
- sequence.entry: "MGSDKIHHHHHHMDERWMVMKITIVFENHAGYRKGLIGYHGFSALVEANGYRVLVDTGTDGKVLLNNMSELGISPDDIDALFITHGHYDHTGGLRELLSARTEALDIYAHPGIFKRRLALKPKKREIGIPFTREELEELGGKFILSDKSKEILPGFISSGEIERITWDRAVGYFPDGSKDPVRDDMALIVEEGSKSVVITGCGHSGIINIAIHSKKLTNNRIAALIGGFHLKGIERSLLDEAVKKLRELEIEKLYPGHCTGIEEFAYLWSKFGNVEGIHVGKEIKI"
  experimental.readout: "soluble on expression in E. coli"
  result: "not soluble"

----------
Assay: soluble on expression in E. coli; label from the status in PepcDB or PDB records
experimental.readout: soluble on expression in E. coli

Please review the entries below; each comes with its answer.
- sequence.entry: "GPGSMNQLVVFLDIDNTLYSGEEYHSLAEQIRDGLVEYVGNWLQLTPQESEAYVVHCFEKYGLTIAGLMHEQKGFDAEAATDFLYSHCDFSHLQENPRLREMLSRLRRNHHLYFFTNASRRHATTVLQALGLSSDEFRMSGFTYEDQWAQTAPVPCNKPMRNAYIAVIKVLKKWLQDAEWVTAECMVMVDDSACNLIEPLALGLNAVWVSHGHPISDVLAEKMNTGRLFCITDIIELEDIIKQITINREN"
  soluble on expression in E. coli: "soluble"
- sequence.entry: "GPGSMAVGASSRTAQRTPARERRQIIPPDVSGQFRVTTFLSLDAFALQHFTLDDHSATGKEGRMFRAFGVTTWAPRIWDEGVSGVFLDLRGAYNYWKRADDQAQLVFDSLVAWIGALEAERDPTDRFMNLGRILLQAFRMQLMMASDPGIPVFNILARPCTAVHEADTFARTIQIPLERRGTQISLRCQLCHVTCP"
  soluble on expression in E. coli: "not soluble"
- sequence.entry: "MGSDKIHHHHHHMLDSPLSLLAGVGAEIAAGNLIPFLGPDVLTIEAEPPVPVGARTLSLALASKVGVPGRIKNNLWHSAQYIETHKHRVTLDKLMAAFFQPIPEPNALHRWLAGLPKLPMVVDTWYDGAMKAAFEAVGRESWGIVQGCSKARRLDGGVWFRAVSPDGAIVAEDVAESWRTVLYKPHGAAQPTGDVLVSDSDYVEVLTDIDIGTPIPQLVKDRRSNRGFVFLGCRFYDQILRTFARQISKRCGGPRYAVVPEELTRNELKFLEVEGITPITMPLAEAVALMTAAKTA"
  soluble on expression in E. coli: "not soluble"
- sequence.entry: "MKKTIYKCVLPLLICILLTGCWDRTEINDIAFVVSSAIDKKKDQYRVAMQIPLVGQLGGQTGGGGGTAGSKTWYVDSASGTTIREANNKLQTSLSRTINTSHRRTVIIGEDMARDGVAPVFDILTRNPQNRLTALILVSRGEARDILNTDVQLEQFPAEMIRELAIIATSRPVFLSRFMSDLVEIGSDPYAPVISASKTKPGGKGKSNLKIDGLAIFKKDRLMDIFKDEHMTAALMLLNQARQPEFIVDLPNQMGQASIQLQKSNASFHAAEKNGKLSMTIEIRAKGIIMENQSTYETRENDQYYIIQKALNRTIKKDVISTVHRLQKLKADPAGFQDRTIRSTATTKNLLKKEWEEVYKDMEVHVVPIVTIEQGGVLYKTISH"
  soluble on expression in E. coli: "not soluble"
- sequence.entry: "MGSDKIHHHHHHMSQLLRKPERAEISKGVTLVHDVTADNASLEYVSFKALDLSQGATYSETLENKECCIVVVTGKVHVTDHEVTFENIGTRESVFEKKPTDSVYVSNNQTFSIEAVTGARVALCYAPSKNQLPTKLIKAEDNGVEHRGKGNNQRMVHNILPDSDPSANSLLVVEVFTESGNWSSYPPHKHDRDLLPEESLLEETYYHEVNPKQGFVFQRVYTDDRSLDETMTVENENMVIVPKGYHPVGVPEGYASYYLNVMAGPKRIWKFFNDPAHEWIIE"
  soluble on expression in E. coli: "not soluble"

// next entry
// returns reported soluble on expression in E. coli for input `MNVGDVVKGEVLAIDDDKQVIVGIQGTGVEGVVPLKELSTQRVDDVNEAAKVGDVLDLVVISRIGSDKENGSYLLSHRRLEARKVWDDVEKEYEAGHTIKAPVTQVVKGGLVVDAGVRGFIPASMIDDHYVEDLNAYKGQELELKIIEIEPSENRLILSHRAVVEKQREALEHHHHHH`
soluble

----------
Assay: soluble on expression in E. coli; label from the status in PepcDB or PDB records
experimental.readout: soluble on expression in E. coli

Please review the entries below; each comes with its answer.
- sequence.entry: "MGSDKIHHHHHHMSDPTWDGSPQYRNELLRFMPADDLALLAPHMQRCALPVRMMLVTPNIPIEAVYFIEQGIGSVVASTASGHDAEIGFIGFEGMTGSALVMGDDRAAHACFVQLEGEAIRIDAAPFNAALAASPTLRLFLLHFVNTLHTQTGCTALVNARLKLEERLARWLLMCDDRVPGESLAMTHEFLSIMLGVRRPGVTVALQLLEGRALIRSRRGEIVIRDRAGLLELANGGYGQAEAEYARLIGEIMPG"
  result: "not soluble"
- sequence.entry: "MNLHICEVTAKNWRSVVALDVAKDQQQFIESNAFSLAESLYEGNGTSVGLYDSETLVGYAMYGWYSVKHKSVWLDRFMIDQQYQGKGYAKRFLRLLIQFLQEKFECKIIYLSLHPDNKLAMGLYESFGFRLNGDIDDEGPVVGVVMELLIDENTSL"
  result: "not soluble"
- sequence.entry: "MKEVKKEYLTLDEVKILAQTPCEHDVLKRASLFSCLTGLRISDILNLRWEDFTLAPDQGYCIRIRTQKTSTEATLPISYEAYELCGEPSSGKVFKGLQRSMINYPLKKWIKQAGIMKHITFHCFRHSYAVIQISLGTDIYTVSKMLTHKNVSTTQIYADLEHHHHHH"
  result: "not soluble"
- sequence.entry: "GMPQTLKPDTPAGTPAAGAVAFRRQVLPQDALLVRRVVESTGFFTPEEADVAQELVDEHLMHGAACGYHFVFATEDDDMAGYACYGPTPATEGTYDLYWIAVAPHRQHSGLGRALLAEVVHDVRLTGGRLLFAETSGIRKYAPTRRFYERAGFSAEAVLKAFYRAGDDKIIYRLEVA"
  result: "soluble"
- sequence.entry: "MGSDKIHHHHHHACTDDSNDVVATTSEVIEQAEVPFSVVLKAMNSDGNDITTKGEVNGATLFVFDQNNDFFEQINVNKSTILSRRAIDINCPNSNDITVIAWSGINSGNEEISNMSKANIISDLQVSLKENNGIANIPSDLFYGQVTLHKNSSTKSTVSNELQIIRKTSIFQLSTKGLIKYLGSNAGNFEYRIKNTKSSLDYNGNPTGEEVEFAFPASFDEKGNLTTETQAIFPAQNITVELYKDGNLIFSSEKDKNGELFAATPGKRTEITFKYSGEVSANITIADWATVIQHITMN"
  result: "not soluble"
- sequence.entry: "MKPHALIGLLAGMLLSSSLYAADSTKPLPLHIGGRVLVESPANQPVSYTYSWPAVYFETAFKGQSLTLKFDDDQNIFRLIVDDKAPVVINKPGKVDYPVESLAPGKHRVRLEKLTETQSTSGRFLGFYTDPSAKPLALPKRKRQIEFIGDSFTVGYGNTSPSRECTDEELFKTTNSQMAFGPLTAKAFDADYQINASSGFGIVRNYNGTSPDKSLLSLYPYTLNNPDQLYHNKHWKPQVIVIGLGTNDFSTALNDNERWKTREALHADYVANYVKFVKQLHSNNARAQFILMNSDQSNGEIAEQVGKVVAQLKGGGLHQVEQIVFKGLDYSGCHWHPSANDDQLLANLLITHLQQKKGIWLEHHHH"
  result: "soluble"
- sequence.entry: "MTKVTREEVEHIANLARLQISPEETEEMANTLESILDFAKQNDSADTEGVEPTYHVLDLQNVLREDKAIKGIPQELALKNAKETEDGQFKVPTIMNEEDA"
  result: "soluble"
- sequence.entry: "MGSSHHHHHHSSGLVPRGSHMRPHGDTAKKPIIGILMQKCRNKVMKNYGRYYIAASYVKYLESAGARVVPVRLDLTEKDYEILFKSINGILFPGGSVDLRRSDYAKVAKIFYNLSIQSFDDGDYFPVWGTCLGFEELSLLISGECLLTATDTVDVAMPLNFTGGQLHSRMFQNFPTELLLSLAVEPLTANFHKWSLSVKNFTMNEKLKKFFNVLTTNTDGKIEFISTMEGYKYPVYGVQWHPEKAPYEWKNLDGISHAPNAVKTAFYLAEFFVNEARKNNHHFKSESEEEKALIYQFSPIYTGNISSFQQCYIFD"
  result: "soluble"

Provide reported soluble on expression in E. coli for each item, in the same order as listed.
1. MLDDVRLLANGLLQLGQSLREFVHKTKSQTNDIFQKLNIFDRSFYQLSVVTSEIKEEEEKLKGLSQPITVSIHQPEQRAKHTKEA
2. MSLKMANPKYKRILIKLSGEALAGERGVGIDIQTVQTIAKEIQEVHSLGIEIALVIGGGNLWRGEPAAEAGMDRVQADYTGMLGTVMNALVMADSLQQVGVDTRVQTAIAMQQVAEPYVRGRALRHLEKGRIVIFGAGIGSPYFSTDTTAALRAAEIEADAILMAKNGVDGVYNADPKKDKTAVKFEELTHRDVINKGLRIMDSTASTLSMDNDIDLVVFNMNQSGNIKRVVFGENIGTTVSNNIEEKEEGHHHHHH
3. MGSDKIHHHHHHADSPDAFVPPTRLTRIAFDRRSAAFGQLDFLLGEIGRRMQERMEVVRLTPQRALDIGCGHGQGLAGLRARFPDAQIAGLDISGVMLAEAGQRDPQRRPGWVGRLLGKRPLFDLVQGDLATLPFAPGSFDLLWSNLALHWHPEPHRVFPEWHRVTRDDGLVMFSLFGPDTLRELRTAFEEVDTATHTLRFVDMHDIGDMLVHGGWSTPVMDMETLTVTYESPEMLLREVQAFGGLRAHPALRRAGLHGRRWHQAVCAALERLRNADGVIPLTFEIVYGHAWKLPPRGAQQVDELGRAVVPLDKIGRARPRR
4. SLANLSKERQQALLKILHYIQDGGDFTEAKKMFQESFDKVDVSEITAAERELIAQGLDPRKIQYLCNVHADVFKGNIKENAANPDFATPGHPVNTLKQENVVIKSLVNDYLLPNLKKWEKDHSEQTLSKIKQALSDLATIGKHYARKETSFFPLMTKYGITAPPQVMWGVDDKIRRLIKEANNVVNENDVDPAKLRKIIDEVSHEVLEMIFKEEEIMVPMIDEVASPADWGNVKDEEKQIGYTLINPPMNWKPKEE

1: not soluble; 2: soluble; 3: not soluble; 4: soluble
